SYSTEM TESTED: recombinant human β tryptase (Homo sapiens)
Construct: host or cells: yeast cells
METHOD SUMMARY: Tryptase primary screen (chromogenic assay), IC50 and Ki determination
Assay type: biochemical
CONDITION NOTES: substrate S2366 0.5 mM (2×Km), room temperature; Ki=IC50/(1+[Substrate]/Km); read-out: Tryptase Ki
OBSERVABLE: pKi
Just so you know, pKi here is -log10 of the concentration in molar units; reply with that number alone.

Query block: Which pKi value is on record for COCCn1cc(C(=O)N2CCC(c3cc(CN)ccc3F)CC2)c2c(F)ccc(F)c21 ?
Result block: 7.60

====

SYSTEM TESTED: recombinant human β tryptase (Homo sapiens)
Construct: host or cells: yeast cells
METHOD SUMMARY: Tryptase primary screen (chromogenic assay), IC50 and Ki determination
Assay type: biochemical
CONDITION NOTES: Tryptase Ki, substrate S2366 0.5 mM (2×Km), room temperature; Ki=IC50/(1+[Substrate]/Km)
Excerpt: Tryptase inhibition activity is confirmed using either isolated human lung tryptase or recombinant human β tryptase expressed in yeast cells. Essentially equivalent results are obtained using isolated native enzyme or the expressed enzyme. The assay procedure employs a 96 well microplate (Costar 3590) using L-pyroglutamyl-L-prolyl-L-arginine-para-nitroanilide (S2366: Quadratech) as substrate (essentially as described by McEuen et. al. Biochem Pharm, 1996, 52, pages 331-340). […]
Structures can show the parent of a compound that is named as a salt.
OBSERVABLE: pKi
Just so you know, pKi here is -log10 of the concentration in molar units; reply with that number alone.

Worked set:
>  <MOLECULE>
COCCn1cc(C(=O)N2CCC(c3cc(CN)ccc3F)CC2)c2c(C(F)(F)F)ccc(F)c21 [Example 13, hydrochloride]

>  <SYSTEM TESTED>
recombinant human β tryptase (Homo sapiens)

>  <pKi>
6.89

$$$$
>  <MOLECULE>
COCCn1cc(C(=O)N2CCC(c3cc(CN)ccc3F)CC2)c2c(Cl)ccc(OC(F)(F)F)c21 [Example 12, hydrochloride]

>  <SYSTEM TESTED>
recombinant human β tryptase (Homo sapiens)

>  <pKi>
6.77

$$$$
>  <MOLECULE>
COCCn1cc(C(=O)N2CCC(c3cc(CN)ccc3F)CC2)c2c(F)ccc(C)c21 [Example 4, hydrochloride]

>  <SYSTEM TESTED>
recombinant human β tryptase (Homo sapiens)

>  <pKi>
7.59

$$$$
>  <MOLECULE>
COCCn1cc(C(=O)N2CCC(c3cc(CN)ccc3F)CC2)c2cc(Cl)cc(C)c21 [Example 1, hydrochloride]

>  <SYSTEM TESTED>
recombinant human β tryptase (Homo sapiens)

>  <pKi>
6.94

$$$$

Query block: Which pKi value is on record for COCCn1cc(C(=O)N2CCC(c3cc(CN)ccc3F)CC2)c2c(C)ccc(F)c21 [Example 15, hydrochloride] ?
Result block: 7.35

Query block: Next molecule up: COCCn1cc(C(=O)N2CCC(c3cc(CN)ccc3F)CC2)c2c(F)c(F)ccc21 [Example 19, hydrochloride]
Result block: 6.85

Query block: Next molecule up: COCCn1cc(C(=O)N2CCC(c3cc(CN)ccc3F)CC2)c2c(Cl)ccc(C)c21 [Example 6, hydrochloride]
Result block: 7.46

====

SYSTEM TESTED: recombinant human β tryptase (Homo sapiens, UniProt P20231)
Construct: host or cells: yeast cells
Sequence (P20231 31-275): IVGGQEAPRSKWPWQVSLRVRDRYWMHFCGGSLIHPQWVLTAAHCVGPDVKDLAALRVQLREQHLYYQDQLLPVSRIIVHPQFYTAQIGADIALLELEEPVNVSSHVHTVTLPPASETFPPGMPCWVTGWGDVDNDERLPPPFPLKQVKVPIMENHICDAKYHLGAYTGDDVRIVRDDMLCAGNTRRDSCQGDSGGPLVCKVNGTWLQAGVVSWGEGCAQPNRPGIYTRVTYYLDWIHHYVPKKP
METHOD SUMMARY: Tryptase primary screen (chromogenic assay), IC50 and Ki determination
Format: biochemical
CONDITION NOTES: Tryptase Ki, substrate S2366 0.5 mM (2×Km), room temperature; Ki=IC50/(1+[Substrate]/Km)
Counter-ions that a name gives are not always drawn.
The following compounds are shown together with reported pKi values.
Just so you know, pKi here is -log10 of the concentration in molar units; reply with that number alone.

Worked set:
>  <COMPOUND>
COCCn1cc(C(=O)N2CCC(c3cc(CN)ccc3F)CC2)c2cc(F)cc(C)c21 [Example 3, hydrochloride]

>  <OBSERVABLE>
pKi

>  <REPORTED VALUE>
7.46

$$$$
>  <COMPOUND>
COCCn1cc(C(=O)N2CCC(c3cc(CN)ccc3F)CC2)c2cc(OC)c(OC)cc21 [Example 20, hydrochloride]

>  <OBSERVABLE>
pKi

>  <REPORTED VALUE>
7.05

$$$$

Lab note: next compound to report on.
Query block: Which pKi value is on record for Cc1ccc(F)c2c(C(=O)N3CCC(c4cc(CN)ccc4F)CC3)cn(CCOC(F)(F)F)c12 ?
Result block: 6.14

====

SYSTEM TESTED: recombinant human β tryptase (Homo sapiens)
Construct: host or cells: yeast cells
METHOD SUMMARY: Tryptase primary screen (chromogenic assay), IC50 and Ki determination
Assay type: biochemical
CONDITION NOTES: Tryptase Ki, substrate S2366 0.5 mM (2×Km), room temperature; Ki=IC50/(1+[Substrate]/Km)
Counter-ions that a name gives are not always drawn.
OBSERVABLE: log10(Ki) (log10 of the value in nM)
For clarity, the numbers are log10 values of Ki expressed in nM.

>  <COMPOUND>
NCc1ccc(F)c(C2CCN(C(=O)c3cn(CCOC(F)(F)F)c4c(F)ccc(OC(F)(F)F)c34)CC2)c1 [Example 21, hydrochloride]

>  <log10(Ki)>
2.69

$$$$
>  <COMPOUND>
COCCn1cc(C(=O)N2CCC(c3cc(CN)ccc3F)CC2)c2c(Cl)cc(Cl)cc21 [Example 16, hydrochloride]

>  <log10(Ki)>
2.81

$$$$
>  <COMPOUND>
COCCn1cc(C(=O)N2CCC(c3cc(CN)ccc3F)CC2)c2c(F)ccc(OC(F)(F)F)c21 [Example 5, hydrochloride]

>  <log10(Ki)>
2.51

$$$$
>  <COMPOUND>
CCCCn1cc(C(=O)N2CCC(c3cc(CN)ccc3F)CC2)c2c(OC(F)(F)F)ccc(F)c21 [Example 7, hydrochloride]

>  <log10(Ki)>
2.56

$$$$
>  <COMPOUND>
COCCn1cc(C(=O)N2CCC(c3cc(CN)ccc3F)CC2)c2c(F)cc(F)cc21 [Example 18, hydrochloride]

>  <log10(Ki)>
2.28

$$$$
>  <COMPOUND>
COCCn1cc(C(=O)N2CCC(c3cc(CN)ccc3F)CC2)c2c(C(F)(F)F)ccc(OC)c21 [Example 14, hydrochloride]

>  <log10(Ki)>
1.68

$$$$

Query block: Which log10(Ki) value is on record for COCCn1cc(C(=O)N2CCC(c3cc(CN)ccc3F)CC2)c2ccc(F)c(C)c21 [Example 2, hydrochloride] ?
Result block: 1.65

All figures here come from patent US20120142735A1.
